Biological target: OR51E2 (Homo sapiens, UniProt Q9H255)
Sequence (Q9H255 1-320): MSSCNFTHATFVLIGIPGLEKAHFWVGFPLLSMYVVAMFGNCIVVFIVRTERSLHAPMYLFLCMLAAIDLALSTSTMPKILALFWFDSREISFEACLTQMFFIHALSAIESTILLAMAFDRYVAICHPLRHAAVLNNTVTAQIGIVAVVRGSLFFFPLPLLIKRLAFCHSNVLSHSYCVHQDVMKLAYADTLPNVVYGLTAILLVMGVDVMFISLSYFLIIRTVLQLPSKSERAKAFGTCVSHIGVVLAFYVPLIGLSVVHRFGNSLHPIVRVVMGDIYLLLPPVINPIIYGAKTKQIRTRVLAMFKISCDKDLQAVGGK
Assay: in vitro luciferase assay (CRE-Luc) in Hana3A cells transfected with OR51E2
Conditions: OR51E2 agonist, Hana3A cells, luciferase; read-out: EC50 (potency)
pEC50: −log10 of the molar value. Square brackets hold non-standard residues; d marks the D form. Peptide text beside a SMILES is read from it.
Output schema: class label derived from pEC50. Mapping: band 1: < 6; band 2: ≥ 6 and < 9; band 3: ≥ 9

Reference set, count: 3
INSERT INTO assay_data (compound, systemname, assignedlabel) VALUES
  ('Cc1c(O)cc2c(c1C)OC(C)(CCC(=O)O)CC2 (stereo not shown) [Gamma-CEHC]', 'OR51E2 (Homo sapiens, UniProt Q9H255)', 'band 2'),
  ('NCC(=O)NCC(=O)O [Glycylglycine] (H-Gly-Gly-OH)', 'OR51E2 (Homo sapiens, UniProt Q9H255)', 'band 1'),
  ('O=C(O)[C@@H](O)CO [L-Glyceric acid]', 'OR51E2 (Homo sapiens, UniProt Q9H255)', 'band 2');

Task: Into which bin does this compound go? Nc1ncnc2c1ncn2C1OC(CO)C2OP(=O)(O)OC21 (stereo not shown) [Adenosine 2′,3′-cyclic phosphate]
Result: band 2

Task: Subsequent entry: O=C(O)C(=O)CO [Hydroxypyruvic acid]
Result: band 2

Task: Subsequent entry: C[C@@H](N)C(=O)N[C@H](C)C(=O)O [D-Alanyl-d-alanine] (H-[dA]-[dA]-OH)
Result: band 1

Task: Subsequent entry: C[C@]12CC[C@@H]3c4ccc(O)cc4CC[C@H]3[C@@H]1C[C@@H](O)[C@@H]2O [Estriol]
Result: band 1

Task: Subsequent entry: O=C1CCCN1 [2-Pyrrolidinone]
Result: band 2

Task: Subsequent entry: C[C@]12CC[C@H]3[C@@H](CCC4=CC(=O)CC[C@@]43CO)[C@@H]1CCC2=O [19-OH AD, 19-hydroxyandrost-4-ene-3,17-dione]
Result: band 3

Task: Subsequent entry: CC(=O)N[C@@H](CCC(=O)O)C(=O)O [N-Acetylglutamic acid]
Result: band 3

---

Target: OR51E2 (Homo sapiens, UniProt Q9H255)
Construct: expressed in transfected cells; host or cells: Hana3A cells (modified human embryonic kidney cells)
Assay: in vitro luciferase assay (CRE-Luc) in Hana3A cells transfected with OR51E2
Assay type: cell-based
Conditions: compared to the 1 mM PA response
attributeMeasured: Efficacy
Give a plain numeric answer without units written out.

Recorded results for 3 compounds are shown here.
INSERT INTO results (compound, value) VALUES
  ('CCCCCCCCCCCCCCCC(=O)O', 0.927),
  ('Cc1c(O)cc2c(c1C)OC(C)(CCC(=O)O)CC2 (stereo not drawn)', 1.286),
  ('OC[C@H]1O[C@H](O[C@H]2C(O)O[C@H](CO)[C@@H](O)[C@@H]2O)[C@H](O)[C@@H](O)[C@@H]1O (stereo partly drawn)', 0.790);

Task: Quick check: Efficacy on OR51E2 (Homo sapiens, UniProt Q9H255), item Nc1ncnc2c1ncn2C1OC(CO)C2OP(=O)(O)OC21 (stereo not drawn) [Adenosine 2′,3′-cyclic phosphate] ?
Result: 1.025

Task: Subsequent entry: NC(N)=O
Result: 0.580

---

Target: OR51E2 (Homo sapiens)
Construct: expressed in transfected cells; host or cells: Hana3A cells (modified human embryonic kidney cells)
Experiment: in vitro luciferase assay (CRE-Luc) in Hana3A cells transfected with OR51E2
Type: cell-based
Conditions: OR51E2 agonist, Hana3A cells, luciferase; read-out: EC50 (potency)
attributeMeasured: EC50 (nM)
Your answer is read as nM, so omit the unit and give the number.

INSERT INTO assay_data (compound, attributemeasured, value) VALUES
  ('OC[C@H]1O[C@H](O[C@H]2C(O)O[C@H](CO)[C@@H](O)[C@@H]2O)[C@H](O)[C@@H](O)[C@@H]1O (stereo partly drawn) [Kojibiose]', 'EC50', 1000),
  ('C[C@]12CC[C@H]3[C@@H](CCC4=CC(=O)CC[C@@]43C)[C@@H]1CC[C@H]2O [Epitestosterone]', 'EC50', 0.69);

Task: Quick check: EC50 on OR51E2 (Homo sapiens), item C[C@]12CCC(=O)CC1CC[C@@H]1[C@@H]2CC[C@]2(C)C(=O)CC[C@@H]12 (stereo partly drawn) [Androstanedione] ?
Result: 0.79

Task: Subsequent entry: NC(N)=O [Urea]
Result: 23

Task: Subsequent entry: CCCCCCCCCCCCCCCC(=O)O [Palmitic acid]
Result: 9.8

Task: Subsequent entry: COc1ccc(NC=O)c(C(=O)CCNC(C)=O)c1 [AFMK, N-acetyl-N-formyl-5-metoxykynurenamine]
Result: 12000

---

Target: OR51E2 (Homo sapiens)
Construct: expressed in transfected cells; host or cells: Hana3A cells (modified human embryonic kidney cells)
Sequence (Q9H255 1-320): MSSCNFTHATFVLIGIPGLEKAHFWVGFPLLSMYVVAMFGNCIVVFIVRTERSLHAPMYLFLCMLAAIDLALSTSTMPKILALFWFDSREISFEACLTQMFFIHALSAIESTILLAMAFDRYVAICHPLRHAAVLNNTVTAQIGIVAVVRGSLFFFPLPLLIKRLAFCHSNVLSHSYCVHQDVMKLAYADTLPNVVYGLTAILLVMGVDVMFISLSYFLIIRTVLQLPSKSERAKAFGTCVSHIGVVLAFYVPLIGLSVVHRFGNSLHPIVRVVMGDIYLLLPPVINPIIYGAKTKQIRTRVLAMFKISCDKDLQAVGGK
Assay: in vitro luciferase assay (CRE-Luc) in Hana3A cells transfected with OR51E2
Type: cell-based
Conditions: compared to the 1 mM PA response
attributeMeasured: Efficacy
Give a plain numeric answer without units written out.

Recorded results for 3 compounds are shown here.
INSERT INTO measurements (compound, systemname, value) VALUES
  ('NCC(=O)O', 'OR51E2 (Homo sapiens)', 0.613),
  ('COc1ccc(NC=O)c(C(=O)CCNC(C)=O)c1', 'OR51E2 (Homo sapiens)', 1.483),
  ('O=C(O)C(=O)CO [Hydroxypyruvic acid]', 'OR51E2 (Homo sapiens)', 1.100);

Task: Quick check: Efficacy on OR51E2 (Homo sapiens), item C[C@]12CCC(=O)CC1CC[C@@H]1[C@@H]2CC[C@]2(C)C(=O)CC[C@@H]12 (stereo partly shown) ?
Result: 0.888

Task: Subsequent entry: O=C1CCCN1
Result: 0.525

Task: Subsequent entry: C[C@]12CC[C@H]3[C@@H](CCC4=CC(=O)CC[C@@]43CO)[C@@H]1CCC2=O [19-OH AD, 19-hydroxyandrost-4-ene-3,17-dione]
Result: 0.890

Task: Subsequent entry: C[C@]12CC[C@H]3[C@@H](CCC4=CC(=O)CC[C@@]43C)[C@@H]1CC[C@H]2O [Epitestosterone]
Result: 0.477
